Target: T1, transforming growth factor-beta 3 (TGF-β3) (UniProt P10600 301-412)
T1 construct: also called TGFb3; TGFB3
T1 sequence (looked up): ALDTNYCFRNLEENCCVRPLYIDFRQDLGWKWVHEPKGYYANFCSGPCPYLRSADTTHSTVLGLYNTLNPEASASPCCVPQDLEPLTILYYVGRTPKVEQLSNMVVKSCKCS
Assay: ELISA, peptide on streptavidin plate, ligand 100 ng/ml
Ends that are not written are not given here.
Endpoint name: ELISA OD450 (OD450)
Field: numeric (OD450). Do not append units.

Observe how each entry below is paired with its result.
[
  {
    "Binder": "SGDYYPIIYFNDYWNLQKDYYPINESLA (also: biotinylated, site not given here, also called peptide 33; GT9) [CLPTM1 peptide fragment of SEQ ID NO: 40]",
    "Units": "OD450",
    "Observed value": 0.399
  },
  {
    "Binder": "PLRVSFCPLSLWRWQLYAAQG (also: biotinylated, site not given here) [CLPTM1 peptide fragment of SEQ ID NO: 23]",
    "Units": "OD450",
    "Observed value": 0.016
  }
]

Lab note: next binder to report on.
// query Give me measured ELISA OD450, please, for this binder: QNPPAQPAPNAWQVIKGVLFG (also: biotinylated, site not given here) [CLPTM1 peptide fragment of SEQ ID NO: 10]
// result 0.006
